system: RSV (Long); assay: microbe, parasite or virus in culture; assay type: cell-based, respiratory syncytial virus strain Long; conditions: human respiratory syncytial virus; titered through plaque assaying
reported_endpoint: EC50
# number then unit; no other words

Query: Using the record for COc1ccc(-n2c(SC(C)C(=O)Nc3ccc(C)cc3Cl)nc3ccccc32)cc1 (stereo not shown) , report its EC50.
Response: 70 nM

====

test: Cytotoxicity (metabolic activity), HT1080; type: cell-based; conditions: human, HT1080 cells, highest concentration assessed 75 µM
reported_endpoint: CC50 at 24 h

Query: Fill in: CC50 at 24 h of COc1ccc(-n2c(SC(C)C(=O)Nc3ccc(C)cc3Cl)nc3ccccc32)cc1 (stereo not shown) is ___
Response: > 75 µM

====

assay: Metabolic stability in human liver S9 fractions; format: in vitro ADME; details: both sexes, human, liver S9 fractions, pH 7.4, human liver S9 fractions, up to 60 minutes, LC-MS/MS; calculated/extrapolated; read-out: half-life (t1/2)
reported_endpoint: half-life at 1 µM

Query: Requested read-out: half-life at 1 µM. Entry: COc1ccc(-n2c(SC(C)C(=O)Nc3ccc(C)cc3Cl)nc3ccccc32)cc1 (stereo not shown)
Response: ~3.33 h

====

test system: Influenza A/WSN; test: Virus yield reduction assay, influenza A/WSN; type: cell-based, influenza A strain WSN (H1N1); details: Influenza A virus, WSN; genome copy numbers of released progeny particles by TaqMan RT-PCR; read-out: EC50, Influenza A/WSN
reported_endpoint: pEC50
Lab note: report pEC50 as minus log10 of the concentration in molar units, number only.

Query: Provide the documented pEC50 with Influenza A/WSN as the system for COc1ccc(-n2c(SC(C)C(=O)Nc3ccc(C)cc3Cl)nc3ccccc32)cc1 (stereo not shown) [JMN3-003]
Response: 8.00

====

assay: in vitro; type: cell-based, Avian-chicken; conditions: chicken; DF-1; highest concentration assessed 75 µM; read-out: CC50, Metabolic Activity
reported_endpoint: CC50 at 24 h

Query: Endpoint output: CC50 at 24 h of COc1ccc(-n2c(SC(C)C(=O)Nc3ccc(C)cc3Cl)nc3ccccc32)cc1 (stereo not shown) [JMN3-003] . Value?
Response: > 75 µM
